I'd be grateful if you could share measured normalized growth for these entries.
- Experiment Notes: chemical genetic growth profiling, strain panel (AID 1159580);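 also: tested at 20 µM; growth read once vehicle control cultures reached saturation at 30 °C; 1 = growth at the plate median or of vehicle wells; lower values mean less growth of the strain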
- Measurement Conditions: S. cerevisiae deletion strains, growth OD, locus YKL190W, strain CNB1, stronger effect = lower value
The whole screen tested about 5,500 compounds, of which about 2,000 (36%) were called active. Not shown: some 18% with an inconclusive outcome. This is one part of the list.
# respond with the number and nothing more

Query string: Query: normalized growth; subject: CC(C)(C)NCC(O)c1cc(O)cc(O)c1 (stereo not drawn)
Result string: 0.994

Query string: Would you kindly share the measured normalized growth for NS(=O)(=O)c1cc(C2(O)NC(=O)c3ccccc32)ccc1Cl (stereo not drawn) ?
Result string: 1.01

Query string: Find the recorded normalized growth belonging to C[C@]12CCC3c4ccc(OS(=O)(=O)O)cc4CCC3C1CC[C@H]2O (stereo partly drawn) and report it.
Result string: 1
